Collected GI50 values appear next to each entry.
system: panel of 55 breast cancer cell lines; assay: Cell growth inhibition assay (Cell Titer Glo, 72 h, 9 doses; GI50, TGI, LC50); assay type: cell-based, human; conditions: Homo sapiens, HCC202, HCC202 cell line; censored GI50 values; read-out: GI50 (converted)
The reply should contain only the number, in nM.

Reference set, count: 5
compound	system	GI50 (nM)
CCNCCCNC/C=C\CNCCCNCC	panel of 55 breast cancer cell lines	14500
CC(=O)O[C@@]12CO[C@@H]1C[C@H](O)[C@@]1(C)C(=O)[C@H](O)C3=C(C)[C@@H](OC(=O)[C@H](O)[C@@H](NC(=O)OC(C)(C)C)c4ccccc4)C[C@@](O)([C@@H](OC(=O)c4ccccc4)[C@H]21)C3(C)C	panel of 55 breast cancer cell lines	3.72
Nc1nc2[nH]cc(CCc3ccc(C(=O)N[C@@H](CCC(=O)O)C(=O)O)cc3)c2c(=O)[nH]1	panel of 55 breast cancer cell lines	20.9
CNC(=O)c1cc(Oc2ccc(NC(=O)Nc3ccc(Cl)c(C(F)(F)F)c3)cc2)ccn1	panel of 55 breast cancer cell lines	72400
CCN(CC)CCNC(=O)c1c(C)[nH]c(/C=C2\C(=O)Nc3ccc(F)cc32)c1C [Sunitinib Malate]	panel of 55 breast cancer cell lines	9330

Pending compound:
query: Please report the recorded GI50 for `CC/C(=C(\c1ccccc1)c1ccc(OCCN(C)C)cc1)c1ccccc1` .
result: 29500

---

tested on: panel of 55 breast cancer cell lines; assay: Cell growth inhibition assay (Cell Titer Glo, 72 h, 9 doses; GI50, TGI, LC50); assay type: cell-based, human; details: MCF7 cell line; censored GI50 values; value is the negative log10 of mol/L
Collected GI50 values appear next to each entry.

O=c1[nH]c2ccccc2n1C1CCN(Cc2ccc(-c3nc4cc5[nH]cnc5cc4nc3-c3ccccc3)cc2)CC1 5.78
N.N.O=C([O-])C1(C(=O)[O-])CCC1.[Pt+2] 3.77
O=C1NC(=O)/C(=C/c2ccc(-c3ccc(F)cc3O)o2)S1 4.80

query: Please report the recorded GI50 for `Cc1cc(Nc2cc(N3CCN(C)CC3)nc(Sc3ccc(NC(=O)C4CC4)cc3)n2)n[nH]1` .
result: 5.08

---

tested on: panel of 55 breast cancer cell lines; experiment: Cell growth inhibition assay (Cell Titer Glo, 72 h, 9 doses; GI50, TGI, LC50); assay type: cell-based, human; details: Homo sapiens, MDA-MB-157, cell line MDAMB157; read-out: GI50 (converted)
Collected log10(GI50) values appear next to each entry.
// units: µM (pre-log); metric: GI50; scale: log10

Reference set, count: 4
compound	log10(GI50)
CS(=O)(=O)CCNCc1ccc(-c2ccc3ncnc(Nc4ccc(OCc5cccc(F)c5)c(Cl)c4)c3c2)o1 [Lapatinib]	1.22
CN(Cc1cnc2nc(N)nc(N)c2n1)c1ccc(C(=O)N[C@@H](CCC(=O)O)C(=O)O)cc1 [Methotrexate]	2.22
CCNCCCNC/C=C\CNCCCNCC [CGC-11047]	3.01
C#Cc1cccc(Nc2ncnc3cc(OCCOC)c(OCCOC)cc23)c1 [Erlotinib]	1.70

query: Request: log10(GI50), test system panel of 55 breast cancer cell lines, entry O=C1c2ccccc2-[n+]2ccc3c([nH]c4ccccc43)c21 [Fascaplysin]
result: -0.77

---

system: panel of 55 breast cancer cell lines; experiment: Cell growth inhibition assay (Cell Titer Glo, 72 h, 9 doses; GI50, TGI, LC50); format: cell-based, human; conditions: Homo sapiens, HCC1954, HCC1954 cell line; censored GI50 values; read-out: GI50 (converted)
Counter-ions that a name gives are not always drawn.
# label = Y if GI50 < 300 nM else N

Here are 4 compounds together with their reported answers.
compound	label.class
Cn1cnc2c(F)c(Nc3ccc(Br)cc3Cl)c(C(=O)NOCCO)cc21	N
CO[C@H]1C[C@@H]2CC[C@@H](C)[C@@](O)(O2)C(=O)C(=O)N2CCCC[C@H]2C(=O)O[C@H]([C@H](C)C[C@@H]2CC[C@@H](OC(=O)C(C)(CO)CO)[C@H](OC)C2)CC(=O)[C@H](C)/C=C(\C)[C@@H](O)[C@@H](OC)C(=O)[C@H](C)C[C@H](C)/C=C/C=C/C=C/1C	Y
COc1cccc2c1C(=O)c1c(O)c3c(c(O)c1C2=O)C[C@@](O)(C(=O)CO)C[C@@H]3O[C@H]1C[C@H](N)[C@H](O)[C@H](C)O1	Y
CCCCCN(C)CCC(O)(P(=O)(O)O)P(=O)(O)O [Ibandronate sodium salt]	N

query: Quick check: does CCN(CC)CCNC(=O)c1c(C)[nH]c(/C=C2\C(=O)Nc3ccc(F)cc32)c1C [Sunitinib Malate] have GI50 under 300 nM?
result: N

---

tested on: panel of 55 breast cancer cell lines; experiment: Cell growth inhibition assay (Cell Titer Glo, 72 h, 9 doses; GI50, TGI, LC50); assay type: cell-based, human; conditions: Homo sapiens, HCC1954, HCC1954 cell line; censored GI50 values; read-out: GI50 (converted)
readout.kind: GI50 (nM)
The reply should contain only the number, in nM.

molecule	GI50 (nM)
COC1=C2C[C@@H](C)C[C@H](OC)[C@H](O)[C@@H](C)/C=C(\C)[C@H](OC(N)=O)[C@@H](OC)/C=C\C=C(/C)C(=O)NC(=CC1=O)C2=O [Geldanamycin]	7.24
CN(C)C/C=C/C(=O)Nc1cc2c(Nc3ccc(F)c(Cl)c3)ncnc2cc1O[C@H]1CCOC1 [BIBW 2992]	123
C#Cc1cccc(Nc2ncnc3cc(OCCOC)c(OCCOC)cc23)c1 [Erlotinib]	3090

query: Request: GI50, test system panel of 55 breast cancer cell lines, entry CN(Cc1cnc2nc(N)nc(N)c2n1)c1ccc(C(=O)N[C@@H](CCC(=O)O)C(=O)O)cc1 [Methotrexate]
result: 15.5

---

test system: panel of 55 breast cancer cell lines; test: Cell growth inhibition assay (Cell Titer Glo, 72 h, 9 doses; GI50, TGI, LC50); format: cell-based, human; details: Homo sapiens, MDA-MB-436, cell line MDAMB436; read-out: GI50 (converted)
Collected GI50 values appear next to each entry.
The reply should contain only the number, in nM.

query: Please report the recorded GI50 for `CCN(CC)CCCCNc1ncc2cc(-c3cc(OC)cc(OC)c3)c(NC(=O)NC(C)(C)C)nc2n1` .
result: 6460

query: Please report the recorded GI50 for `CC(=O)O[C@H]1C(=O)[C@@]2(C)[C@H]([C@H](OC(=O)c3ccccc3)[C@]3(O)C[C@H](OC(=O)[C@H](O)[C@@H](NC(=O)c4ccccc4)c4ccccc4)C(C)=C1C3(C)C)[C@]1(OC(C)=O)CO[C@@H]1C[C@@H]2O` .
result: 42.7

query: Please report the recorded GI50 for `CCNCCCNC/C=C\CNCCCNCC` .
result: 380000

query: Please report the recorded GI50 for COc1cccc2c1C(=O)c1c(O)c3c(c(O)c1C2=O)C[C@@](O)(C(=O)CO)C[C@@H]3O[C@H]1C[C@H](N)[C@@H](O)[C@H](C)O1 [Epirubicin] .
result: 708

query: Please report the recorded GI50 for CN(Cc1cnc2nc(N)nc(N)c2n1)c1ccc(C(=O)N[C@@H](CCC(=O)O)C(=O)O)cc1 [Methotrexate] .
result: 20

query: Please report the recorded GI50 for `CC[C@@]1(O)C(=O)OCc2c1cc1n(c2=O)Cc2cc3c(CN(C)C)c(O)ccc3nc2-1` .
result: 30.2

query: Please report the recorded GI50 for `Cc1[nH]c2ccccc2c1CCNCc1ccc(/C=C/C(=O)NO)cc1` .
result: 251

---

tested on: panel of 55 breast cancer cell lines; experiment: Cell growth inhibition assay (Cell Titer Glo, 72 h, 9 doses; GI50, TGI, LC50); format: cell-based, human; conditions: cell line BT20; value is the negative log10 of mol/L
# label = met if GI50 < 5 else not met

Here are 8 compounds together with their reported answers.
compound	system	label.class
CC(C)(C)c1cc(C=C(C#N)C#N)cc(Br)c1O	panel of 55 breast cancer cell lines	met
Cc1cc(C(=O)N2CCN(c3cccc(Cl)c3)CC2)n(-c2ccccc2)n1 [XRP44X]	panel of 55 breast cancer cell lines	not met
CC(C)[C@H](CO)Nc1nc(Nc2cccc(Cl)c2)c2ncn(C(C)C)c2n1	panel of 55 breast cancer cell lines	met
O=C1NC(=O)/C(=C/c2ccc(-c3ccc(F)cc3O)o2)S1	panel of 55 breast cancer cell lines	met
O=C1C(Cl)=C(NCCN2CCOCC2)C(=O)c2ncccc21	panel of 55 breast cancer cell lines	not met
COc1cccc(-c2cc(=O)c3ccccc3o2)c1N	panel of 55 breast cancer cell lines	met
COc1cc2c(Nc3ccc(NC(=O)c4ccccc4)cc3)ncnc2cc1OCCCN1CCOCC1	panel of 55 breast cancer cell lines	not met
CNC(=O)c1c(F)cccc1Nc1nc(Nc2cc3c(cc2OC)CCN3C(=O)CN(C)C)nc2[nH]ccc12 [GSK1838705A]	panel of 55 breast cancer cell lines	met

query: Quick check: does COc1ncc(-c2ccc3nccc(-c4ccnnc4)c3c2)cc1NS(=O)(=O)c1ccc(F)cc1F [GSK2126458A] have GI50 under 5?
result: not met

query: Quick check: does `NS(=O)(=O)c1ccc(Nc2nc(OCC3CCCCC3)c3[nH]cnc3n2)cc1` have GI50 under 5?
result: met

query: Quick check: does `COc1ccc(C2=N[C@@H](c3ccc(Cl)cc3)[C@@H](c3ccc(Cl)cc3)N2C(=O)N2CCNC(=O)C2)c(OC(C)C)c1` have GI50 under 5?
result: met

query: Quick check: does CCNCCCCNCCCCNCCCCNCCCCNCC=CCNCCCCNCCCCNCCCCNCCCCNCC.Cl.Cl.Cl.Cl.Cl.Cl.Cl.Cl.Cl.Cl (stereo in doubt) have GI50 under 5?
result: not met

query: Quick check: does `Oc1cc(-c2nc(-c3ccccc3)[nH]c2-c2ccncc2)ccc1Cl` have GI50 under 5?
result: met

query: Quick check: does O=S(=O)(CC1CS1)c1ccc(Oc2ccccc2)cc1 (centres unmarked) have GI50 under 5?
result: met

query: Quick check: does Cc1cc(C(C)Nc2ccccc2)c2nc(N3CCOCC3)cc(=O)n2c1 (centres unmarked) have GI50 under 5?
result: met

query: Quick check: does `Cc1cc(Nc2cc(N3CCN(C)CC3)nc(Sc3ccc(NC(=O)C4CC4)cc3)n2)n[nH]1` have GI50 under 5?
result: met
